# Experimental Details: CCTE_Shafer_MEA_acute_synchrony_index: CCTE's Neural Acute Assay for Synchrony, Shafer Lab (AID 2284027);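 further: network synchrony index of spontaneous spiking in primary rat cortical neurons on MEAs; fitted for loss of signal so actives lower synchrony relative to DMSO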
Activity calls are given as the source filed them. How the source made its calls: active means hit-call score of the fitted dose curve at least 0.9, where 1 is the maximum; inactive means score below 0.9.
Pick from active, inactive when you respond.

Example results:
CC(=O)[O][Hg][c]1ccccc1	active
CCCCCCCCc1ccc(O)cc1	active
CC(C)(C)CC(C)(C)c1ccc(O)cc1	inactive
COC(=O)Cc1ccccc1	inactive
C=C(C)C(=O)[O][Sn]([CH2]CCC)([CH2]CCC)[CH2]CCC	active

Then there is this molecule:
Ask: Short answer needed: outcome of this test for CCOP(=S)(OCC)SCSP(=S)(OCC)OCC ?
Result: active

* * *

# Experimental System: Nuclear receptor subfamily 1 group I member 2 (Homo sapiens) (UniProt O75469)
# Sequence (O75469 whole entry, looked up): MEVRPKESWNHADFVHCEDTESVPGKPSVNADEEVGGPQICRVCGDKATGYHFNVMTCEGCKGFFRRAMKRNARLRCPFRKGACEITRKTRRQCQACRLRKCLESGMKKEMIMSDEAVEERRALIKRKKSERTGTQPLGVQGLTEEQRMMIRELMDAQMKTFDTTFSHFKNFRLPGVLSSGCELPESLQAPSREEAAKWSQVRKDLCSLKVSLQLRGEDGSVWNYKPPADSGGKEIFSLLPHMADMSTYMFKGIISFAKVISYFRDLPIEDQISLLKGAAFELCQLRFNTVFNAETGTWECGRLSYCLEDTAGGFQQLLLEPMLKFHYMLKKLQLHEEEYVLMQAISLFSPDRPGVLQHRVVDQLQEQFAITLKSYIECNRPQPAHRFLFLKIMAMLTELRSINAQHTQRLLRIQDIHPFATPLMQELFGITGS
# Experimental Details: ATG_PXR_TRANS: Attagene TRANS-FACTORIAL HepG2 Assay for human Pregnane X Receptor (PXR) (AID 2283008)
Inconclusive results are not listed. Activity calls are given as the source filed them. How the source made its calls: active means hit-call score of the fitted dose curve at least 0.9, where 1 is the maximum; inconclusive means response in the unintended direction; inactive means score below 0.9.
Bench note: report the call from t (active), f (inactive)

ClCCBr	f
CCC1(c2ccc(N)cc2)CCC(=O)NC1=O (stereo not drawn)	f
CCN1CCC2(CC1)COc1cc3c(cc12)N(C(=O)c1ccc(-c2ccc(-c4nnc(C)o4)cc2C)cc1)CC3	f
ClCc1ccccn1	f
CCCCOCCOC(C)=O	f

Ask: Hi team, can someone confirm the assay call for COS(=O)(=O)c1ccc(C)cc1 ?
Result: f

Ask: Called result for COP(=S)(OC)Oc1ccc(Sc2ccc(OP(=S)(OC)OC)cc2)cc1
Result: t

Ask: Entry C=CC(=O)N(C)C : call = ?
Result: f

* * *

# Read-out: Tumor necrosis factor (Homo sapiens) (UniProt P01375)
# Sequence (P01375 whole entry, looked up): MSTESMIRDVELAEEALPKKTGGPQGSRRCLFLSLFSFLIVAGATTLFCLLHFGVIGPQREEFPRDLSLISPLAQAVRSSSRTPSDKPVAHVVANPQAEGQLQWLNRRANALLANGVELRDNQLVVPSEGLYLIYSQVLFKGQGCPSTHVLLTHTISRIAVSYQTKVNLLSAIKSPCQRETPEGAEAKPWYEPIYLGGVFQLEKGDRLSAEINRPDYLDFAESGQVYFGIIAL
# Experimental Details: BSK_BT_xTNFa: BioMAP Diversity Plus: BT Assay for Tumor necrosis factor alpha (TNF-alpha) Biomarker Activity (AID 2284230)
# Cond: primary human B cells with PBMC
Activity calls are given as the source filed them. Rule for the calls: active = hit-call score of the fitted dose curve at least 0.9, where 1 is the maximum; inactive = score below 0.9.
Respond using exactly one of the listed classes: t (active), f (inactive)

O=[N+]([O-])c1ccc2c3c(cccc13)CC2	f

Ask: Test call, this molecule: CCOP(=S)(OCC)Oc1ccc(S(C)=O)cc1 (stereo unspecified)
Result: f

Ask: Per the records of this test, what outcome belongs to COP(=S)(OC)Oc1c(Cl)cc(C)cc1Cl ?
Result: f

Ask: Write down the call the test reported for this molecule. Item: CCCCC(CC)CO[N+](=O)[O-] (stereo unspecified)
Result: f

* * *

# Experimental System: Hepatocyte nuclear factor 3-beta (Homo sapiens)
# Experimental Details: ATG_FoxA2_CIS: Attagene CIS-FACTORIAL HepG2 Assay for human Forkhead box A2 (FOXA2) (AID 2282942)
# Cond: HepG2 cis-reporter transcription factor activity, 24 h; actives raise or lower the signal
The source made the active and inactive calls. How the source made its calls: active means hit-call score of the fitted dose curve at least 0.9, where 1 is the maximum; inactive means score below 0.9.
Mark one answer only. Choices: YES (active), NO (inactive)

CN(CCCC(=O)c1cccnc1)N=O	NO
CCOP(=O)(CN(CCO)CCO)OCC	NO
CC(C)(c1ccc(OCC2CO2)cc1)c1ccc(OCC2CO2)cc1 (stereo unspecified)	NO
CNC(=O)O/N=C/C(C)(C)S(C)=O (stereo unspecified)	NO
Cc1ccc2ccccc2c1C	NO
CCCCC(CC)CO[N+](=O)[O-] (stereo unspecified)	NO

Ask: I'd appreciate the recorded outcome for CC(=O)c1cc(C(C)(C)C)cc2c1CCC2(C)C from this test.
Result: YES

Ask: Each compound tested received a call. Report the one for CCC1(c2ccc(N)cc2)CCC(=O)NC1=O (stereo unspecified) .
Result: NO

Ask: Just curious, what result did CCOC(=O)Nc1cccc(OC(=O)Nc2ccccc2)c1 get here?
Result: NO

Ask: For this compound, state the assay outcome: ClC1=C(Cl)[C@]2(Cl)[C@@H]3[C@@H](Cl)[C@@H](Cl)C[C@@H]3[C@@]1(Cl)C2(Cl)Cl
Result: NO

Ask: Which outcome was entered for the compound CC1(C)Cc2cccc(O)c2O1 in this test?
Result: NO

* * *

# Experimental System: X-box-binding protein 1 (Homo sapiens)
# Experimental Details: ATG_Xbp1_CIS: Attagene CIS-FACTORIAL HepG2 Assay for human X-box Binding Protein 1 (XBP1) (AID 2282972)
# Cond: HepG2 XBP1 cis-element reporter, Attagene multiplex; actives raise or lower the signal
# Protocol: ATG_CIS is a cell-based, multiplexed-readout assay that uses HepG2, a human liver cell line, with measurements taken at 24 hours after chemical dosing in a 24-well plate.ATG_Xbp1_CIS is one of 52 assay component(s) measured or calculated from the ATG_CIS assay. […] This assay endpoint, ATG_Xbp1_CIS, was analyzed with bidirectional fitting relative to DMSO as the negative control and baseline of activity. […]
Calls of active or inactive are those of the source. Rule for the calls: active = hit-call score of the fitted dose curve at least 0.9, where 1 is the maximum; inactive = score below 0.9.
The categories you may choose from are yes (1) for active, no (0) for inactive

Check out these entries, answers already filled in.
O=C(Cc1ccccc1)c1ccccc1	no (0)
COP(=S)(OC)Oc1ccc(S(=O)(=O)N(C)C)cc1	no (0)
CCOP(=O)(CN(CCO)CCO)OCC	no (0)

Attention now shifts to the item below.
Ask: Could you please tell me the result logged for ClCc1cccnc1 in this assay?
Result: yes (1)

* * *

# Read-out: ABC Transporter (ABCC2), ABCC2 (gene 1244)
# Experimental Details: LTEA_HepaRG_ABCC2: Life Technologies and Expression Analysis (LTEA) Assay for ABC Transporter (ABCC2) using HepaRG (AID 2283464)
# Cond: mRNA level, 48 h; actives raise or lower the signal
The source made the active and inactive calls. How the source made its calls: active means hit-call score of the fitted dose curve at least 0.9, where 1 is the maximum; inactive means score below 0.9.
A correct response names exactly one class from YES = active, NO = inactive

Field: example entries. Status: answers known.
O=C(Nc1ccc2[nH]ccc2c1)c1cc2cc(F)ccc2n1Cc1cccc(F)c1	YES
ClC1(Cl)C2(Cl)C3(Cl)C4(Cl)C(Cl)(Cl)C5(Cl)C3(Cl)C1(Cl)C5(Cl)C24Cl (stereo not given)	NO
CCN1CCC2(CC1)COc1cc3c(cc12)N(C(=O)c1ccc(-c2ccc(-c4nnc(C)o4)cc2C)cc1)CC3	YES

Ask: Kindly provide the recorded test outcome for the following molecule: CCOP(=S)(OCC)SCSP(=S)(OCC)OCC
Result: YES

* * *

# Read-out: Early growth response protein 1 (EGR1) transcription factor, EGR1 (gene 1958)
# Experimental Details: LTEA_HepaRG_EGR1: Life Technologies and Expression Analysis (LTEA) Assay for Early growth response protein 1 (EGR1) transcription factor using HepaRG (AID 2283490)
# Cond: mRNA level, 48 h; actives raise or lower the signal
Calls of active or inactive are those of the source. The calls were made as follows: active = hit-call score of the fitted dose curve at least 0.9, where 1 is the maximum; inactive = score below 0.9.
A correct response names exactly one class from yes = active, no = inactive

Answered cases to consult:
CCC(=O)C(CC(C)N(C)C)(c1ccccc1)c1ccccc1 (stereo not drawn)	no
CC(C)(C)CC(C)(C)c1ccc(O)cc1	no
O=C(O)C(Cl)(Cl)Cl	no
ClCC(Cl)CCl	no
CC(C)(OO)c1ccccc1	no

Ask: For O=C(O)C(F)(F)C(F)(F)C(F)(F)C(F)(F)C(F)(F)C(F)(F)F , what call appears in the results of this test?
Result: no

Ask: Record request — test call for CCN1CCC2(CC1)COc1cc3c(cc12)N(C(=O)c1ccc(-c2ccc(-c4nnc(C)o4)cc2C)cc1)CC3
Result: yes

Ask: Short answer needed: outcome of this test for CC(=O)[O][Hg][c]1ccccc1 ?
Result: yes

Ask: Entry O=C1C2(Cl)C3(Cl)C4(Cl)C(Cl)(Cl)C5(Cl)C3(Cl)C1(Cl)C5(Cl)C24Cl (stereo not drawn) : call = ?
Result: yes

Ask: Hi team, can someone confirm the assay call for CCC(C)(C)c1ccc(O)c(C(C)(C)CC)c1 ?
Result: no

* * *

# Experimental Details: CEETOX_H295R_DOC: CeeTox H295R High-throughput Steroidogenesis Assay for DOC (AID 2283439)
# Cond: actives raise or lower the signal
Calls of active or inactive are those of the source. Rule for the calls: active = hit-call score of the fitted dose curve at least 0.9, where 1 is the maximum; inactive = score below 0.9.
Return exactly one item of 1 (active), -1 (inactive)

C[C@]12CC[C@H](O)CC1=CC[C@@H]1[C@@H]2CC[C@]2(C)C(=O)CC[C@@H]12	-1
CCOP(=S)(OCC)SCSP(=S)(OCC)OCC	1
O=C(Nc1ccc2[nH]ccc2c1)c1cc2cc(F)ccc2n1Cc1cccc(F)c1	1
Fc1ccc(C2(Cn3cncn3)OC2c2ccccc2Cl)cc1 (stereo not given)	1
CCOP(=S)(OCC)Oc1nc(Cl)c(Cl)cc1Cl	-1

Ask: What classification did O=C(Cc1ccccc1)c1ccccc1 end up with in this test?
Result: -1

Ask: How did this test come out for CCOP(=S)(OCC)SCCS(=O)(=O)CC ?
Result: -1

Ask: // param item: CN(CCCC(=O)c1cccnc1)N=O ; yields the recorded call
Result: -1

Ask: Could you please tell me the result logged for Oc1ccc(-c2ccccc2)cc1 in this assay?
Result: -1

Ask: Identify the outcome logged in this assay for the compound shown: CC12CC1(C)C(=O)N(c1cc(Cl)cc(Cl)c1)C2=O (stereo not given)
Result: -1
